Provide the recorded Average particle diameter for the entries that follow.
measurement_description: Average particle diameter of peptide assembly by dynamic light scattering
Format: physicochemical
condition: 10 mM HEPES, 150 mM NaCl buffer (pH 7); 40 mM DMSO stock diluted 100-fold; stood overnight; 25° C.; main peak of scattering intensity
Ends that are not written are not given here.
One number for each entry, in nm.

Some substances with known Average particle diameter results, for comparison:
{"substance": "KGKILRPR-WWWWWWWW (KGKILRPRWWWWWWWW-NH2) [1-3]", "unit_text": "nm", "Average particle diameter": 920}
{"substance": "KGKILRPR-LLLLLLLL (KGKILRPRLLLLLLLL-NH2) [1-1]", "unit_text": "nm", "Average particle diameter": 36}
{"substance": "KGKILRPR-FFFFFFFF (KGKILRPRFFFFFFFF-NH2) [1-4]", "unit_text": "nm", "Average particle diameter": 50}
{"substance": "KGKILRPR-LLELLELL (KGKILRPRLLELLELL-NH2) [Reference Example 1-5]", "unit_text": "nm", "Average particle diameter": 5}
{"substance": "KGKILRPR-YYYYYYYY (KGKILRPRYYYYYYYY-NH2) [1-2]", "unit_text": "nm", "Average particle diameter": 210}
{"substance": "KGKILRPR-WWEWWEWW (KGKILRPRWWEWWEWW-NH2) [1-6]", "unit_text": "nm", "Average particle diameter": 10}

Returns the measured Average particle diameter for the input substance. Input: KGKILRPR-AAEAAEAA (KGKILRPRAAEAAEAA-NH2) [1-7]
520
